Origin of the recorded values: patent US20030199590A1

target: FP receptors (Swiss 3T3 cells expressing FP receptors) (Mus musculus); construct: endogenous in cells; host or cells: Swiss 3T3 cells; experiment: FP receptor-mediated phosphoinositide turnover assay; assay type: cell-based; conditions: Table 1; [3H]-IPs in Swiss 3T3 cells; read-out: FP functional EC50
VALUE TYPE: EC50

Request: Param readout = EC50; param system = FP receptors (Swiss 3T3 cells expressing FP receptors) (Mus musculus); param query = `O=C(O)CC/C=C\CC[C@H]1[C@@H](O)CO[C@@H]1/C=C/[C@H](O)COc1cccc(C(F)(F)F)c1` ; response: value
Response: 781 nM

Request: One more compound: `O=C(O)CCC/C=C\C[C@@H]1[C@@H](/C=C/[C@H](F)COc2cccc(C(F)(F)F)c2)[C@H](O)C[C@@H]1O`
Response: 131 nM

Request: One more compound: `O=C(O)CCC/C=C\C[C@H]1CC[C@@H](O)[C@@H]1CC[C@@H](O)CCc1cccc(Cl)c1`
Response: 6.6 nM

Request: One more compound: `O=C(O)CCC/C=C\C[C@@H]1[C@@H](OC[C@H](O)COc2ccccc2)[C@H](O)C[C@@H]1O`
Response: 166 nM

###

FP receptors (Bos taurus, UniProt P37289): recorded pKi for assorted compounds
Sequence (P37289 whole entry): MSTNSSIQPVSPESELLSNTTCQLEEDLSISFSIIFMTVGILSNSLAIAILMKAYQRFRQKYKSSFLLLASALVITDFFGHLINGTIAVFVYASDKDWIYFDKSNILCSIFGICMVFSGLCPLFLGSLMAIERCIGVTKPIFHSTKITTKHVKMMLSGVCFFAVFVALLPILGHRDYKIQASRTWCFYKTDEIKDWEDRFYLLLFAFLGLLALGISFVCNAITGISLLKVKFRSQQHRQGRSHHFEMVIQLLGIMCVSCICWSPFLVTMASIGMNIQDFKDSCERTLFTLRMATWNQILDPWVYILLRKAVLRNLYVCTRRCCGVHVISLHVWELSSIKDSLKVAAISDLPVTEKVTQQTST
FYI, pKi means -log10 of a concentration in mol per litre.

Request: Consider the compound `O=C(O)CCC/C=C\C[C@@H]1[C@@H](CC[C@@H](O)COc2cccc(Cl)c2)[C@H](O)C[C@@H]1O` and give its measured pKi.
Response: 7.30

Request: One more compound: `O=C(O)CCC/C=C\C[C@@H]1[C@@H](/C=C/[C@H](O)COc2cccc(C(F)(F)F)c2)[C@H](O)C[C@@H]1O`
Response: 6.82

Request: One more compound: `O=C(O)CCCCCC[C@@H]1[C@@H](CC[C@@H](O)COc2cccc(Cl)c2)[C@H](O)C[C@@H]1O`
Response: 6.66

###

Assignment: determine reported % response for the given compounds.
target: FP receptors (Swiss 3T3 cells expressing FP receptors) (Mus musculus, UniProt P43117); construct: endogenous in cells; host or cells: Swiss 3T3 cells; test: FP receptor-mediated phosphoinositide turnover assay; assay type: cell-based; details: Table 2; efficacy relative to standard
Sequence (P43117 whole entry): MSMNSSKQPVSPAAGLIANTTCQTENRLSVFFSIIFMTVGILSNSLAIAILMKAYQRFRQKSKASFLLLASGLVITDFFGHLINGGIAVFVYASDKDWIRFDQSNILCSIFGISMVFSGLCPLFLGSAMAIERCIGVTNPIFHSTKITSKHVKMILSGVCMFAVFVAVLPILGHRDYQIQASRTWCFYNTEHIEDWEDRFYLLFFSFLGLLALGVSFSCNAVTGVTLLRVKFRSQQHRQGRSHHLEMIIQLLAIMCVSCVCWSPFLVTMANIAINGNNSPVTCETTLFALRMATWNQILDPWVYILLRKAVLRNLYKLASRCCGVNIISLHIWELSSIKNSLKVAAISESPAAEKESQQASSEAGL
Kindly answer with a numeric value in %, unit omitted.

Request: Consider the compound O=C(O)CCCCCC[C@@H]1[C@@H](/C=C/[C@H](O)COc2cccc(Cl)c2)[C@H](O)C[C@@H]1O [Compound 87] and give its measured % response.
Response: 88

Request: One more compound: O=C(O)CCC/C=C\C[C@@H]1[C@@H](/C=C/[C@H](O)COc2cccc(C(F)(F)F)c2)[C@H](O)C[C@@H]1O [Compound 88]
Response: 99

Request: One more compound: O=C(O)CCC/C=C/C[C@@H]1[C@@H](/C=C/[C@@H](O)COc2cccc(C(F)(F)F)c2)[C@H](O)C[C@@H]1O [Compound 89]
Response: 96

Request: One more compound: O=C(O)CCCCCC[C@@H]1[C@@H](/C=C/[C@@H](O)COc2cccc(Cl)c2)[C@H](O)C[C@@H]1O [Compound 86]
Response: 100

Request: One more compound: O=C(O)CCC/C=C\C[C@@H]1[C@@H](/C=C/[C@@H](O)COc2cccc(Cl)c2)[C@H](O)C[C@@H]1O [Compound 81]
Response: 100

Request: One more compound: O=C(O)CCC/C=C\C[C@@H]1[C@@H](CC[C@H](O)COc2cccc(Cl)c2)[C@H](O)C[C@@H]1O [Compound 84]
Response: 76

Request: One more compound: O=C(O)CCCCCC[C@@H]1[C@@H](CC[C@@H](O)COc2cccc(Cl)c2)[C@H](O)C[C@@H]1O [Compound 85]
Response: 100

Request: One more compound: O=C(O)CCC/C=C\C[C@@H]1[C@@H](CC[C@@H](O)COc2cccc(Cl)c2)[C@H](O)C[C@@H]1O [Compound 83]
Response: 100

Request: One more compound: O=C(O)CCC/C=C\C[C@@H]1[C@@H](/C=C/[C@@H](O)COc2cccc(C(F)(F)F)c2)[C@H](O)C[C@@H]1O [Compound 82]
Response: 96
